Value source: the RNAGym collection of RNA variant scans (doi:10.7554/elife.90254)

# self-cleavage listing for each entry below
B1: LINE1-full (parent)
chain: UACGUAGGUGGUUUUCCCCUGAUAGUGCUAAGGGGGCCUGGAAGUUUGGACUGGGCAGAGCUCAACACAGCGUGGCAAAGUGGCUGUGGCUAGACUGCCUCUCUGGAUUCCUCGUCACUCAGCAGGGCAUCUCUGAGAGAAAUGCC

Variants of: B1
Assay: self-cleavage, relative activity (ratio to wild type); higher = more cleavage; in vitro, sequencing; the parent is a self-cleaving ribozyme
I only need the number, thanks.

Example entries and their recorded answers appear below.
A64G C76U | 0.13
G36A U62G | 0.01
U45A A78U | 1.99
U9A G36A | 1.09
U87A U115G | 0.13
U12C U143A | 1.25

Memo: C38U U130C , reported self-cleavage: 1.46

Memo: G41A U102A , reported self-cleavage: 1.05

Memo: U15G A141G , reported self-cleavage: 1

Memo: G83A U109A , reported self-cleavage: 0.96

Memo: A43U A79G , reported self-cleavage: 0.97

Memo: U46C U109A , reported self-cleavage: 1.41

Memo: U62C A77U , reported self-cleavage: 0.03
